Would you mind telling me the reported growth inhibition of each entry?
# assay_notes: NCI Yeast Anticancer Drug Screen. Data for the cln2 rad14 strain (AID 165);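 note: 0% = growth equal to vehicle treated cultures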
# measurement_parameters: S. cerevisiae cln2 rad14 strain, at 50.0 µM, active compounds read high
# Method: Growth inhibition of yeast strains with defined genetic alterations is measured as a screen for potential anti-cancer activity. Selected strains with alterations in DNA damage repair or cell cycle control were exposed to compounds and growth inhibition was measured relative to vehicle treated controls. The strain used in this assay is cln2 rad14
Compounds without any hit were thinned out: in the full panel of roughly 79,000, 15% have a hit.
Give bare numbers, in %.

compound	unit_abbreviation	growth inhibition
CC(=O)OC1CC(=O)OC(C)(C)C2CC(=O)C3(C)C(CCC4(C)C(c5ccoc5)OC(=O)C5OC543)C12C (stereo unspecified)	%	2.85

Need growth inhibition for each of these compounds.
1. COc1ccc(Cc2cc3c(cc2OCC(=O)N2CCOCC2)OCO3)cc1
2. COC(=O)N1c2ccccc2N(C(=O)OC)c2c1oc1ccccc1c2=O
3. CC1CN=C(N(C(=O)Nc2ccc(F)c(Cl)c2)c2ccccc2)S1 (stereo unspecified)
4. CCCCCCSCCO
5. CCOC(Cn1ccccc1=N)OCC

1: -37.7; 2: 7.3; 3: 25.4; 4: 23.6; 5: -40

---

# assay_notes: NCI Yeast Anticancer Drug Screen. Data for the cln2 rad14 strain (AID 165);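 note: 0% = growth equal to vehicle treated cultures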
# measurement_parameters: S. cerevisiae cln2 rad14 strain, at 50.0 µM
Compounds without any hit were thinned out: in the full panel of roughly 79,000, 15% have a hit. Activity calls are given as the source filed them. Cut-off read from the data, not from the text of the source: active = growth inhibition above about 70%; inactive = the rest.
# valid calls are active, inactive; nothing else

Previously resolved entries follow.
compound	label
Clc1ccccc1OCc1cnc[nH]1	inactive
S=P(c1ccccc1)(c1ccccc1)C(P(c1ccccc1)c1ccccc1)P(c1ccccc1)c1ccccc1	inactive
COc1ccc(C(=O)C(C(=O)C(=O)NCCCNC(=O)C(=O)C(C(=O)c2ccc(OC)cc2)c2ccc(OC)cc2)c2ccc(OC)cc2)cc1 (centres undefined)	inactive

Then this compound:
Any idea what this test logged for COc1ccccc1/C=N/NC(=O)CCCCCCCCC(=O)N/N=C/c1ccccc1OC ?
inactive

---

# assay_notes: NCI Yeast Anticancer Drug Screen. Data for the cln2 rad14 strain (AID 165);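 note: 0% = growth equal to vehicle treated cultures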
# measurement_parameters: S. cerevisiae cln2 rad14 strain, at 50.0 µM, active compounds read high
About 79,000 compounds went through this panel and 15% of them were active in at least one assay; those are over-represented in the sample as a whole.
measured_quantity: growth inhibition (%)
Numbers only, in %.

Some solved cases for reference:
molecule	quantitative_readout
Cc1cc(S(=O)(=O)Nc2nc(N)n(C)n2)c(S)cc1Cl	-3.1
O=S(c1ccc(O)cc1)c1ccc(O)cc1	1.35
NC(=O)Cc1[nH]ccc1C(=O)O	-18.6
CCN(Cc1ccccc1)c1ccccc1C	0

For each listed entry, give its growth inhibition.
1. O=C(O)Cc1nc(Cl)ccc1Cl
2. CNC(=O)NC(c1cc(OC)c(O)c(OC)c1)c1cc2c(cc1O)OCO2 (configuration not stated)
3. CCC1(C)CCC(C)(CC)c2cc(C)ccc21 (configuration not stated)

-15.2
9.6
-16.8

---

# assay_notes: NCI Yeast Anticancer Drug Screen. Data for the mec2-1 strain (AID 157)
# measurement_parameters: S. cerevisiae mec2-1 strain, at 50.0 µM, active compounds read high
The panel holds about 79,000 compounds, 15% with a hit somewhere; the sample as a whole holds those more often.
measured_quantity: growth inhibition (%)
Answers are plain numbers, in %.

These recorded examples may help you get a feel for the data.
compound	quantitative_readout
COc1cc2cc(C)c(C)cc2cc1OC	13.7
COC(=O)CCSc1ccccc1	-12
O=C(O)c1c(Cl)c(Cl)c(Cl)c(Cl)c1C(=O)Nc1cccc(C(F)(F)F)c1	10.2
c1ccc(CSCCc2ccncc2)cc1	-13.6
C#CC(O)(CC)CCCC (configuration not stated)	-13.4
CC(=O)Nc1ccc(OCCCc2ccccc2)c([N+](=O)[O-])c1	43.6

Take each entry in turn and give its growth inhibition.
1. Cc1ccccc1C1OC(=O)c2ccccc21 (configuration not stated)
2. CC1CC[C@@]23CCC4(C)[C@@](C=CC5[C@@]6(C)CCC(=O)C(C)(C)C6CC[C@]54C)(OC2=O)[C@@H]3[C@H]1C (some centres not stated)
3. O=S=C1SC2CCCCC2S1 (configuration not stated)

1: -8.85; 2: -17.6; 3: 4.15

---

# assay_notes: NCI Yeast Anticancer Drug Screen. Data for the rad50 strain (AID 155);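 note: 0% = growth of vehicle-only cultures of the same strain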
# measurement_parameters: S. cerevisiae rad50 strain growth inhibition; at 50.0 µM; active compounds read high
The panel holds about 79,000 compounds, 15% with a hit somewhere; the sample as a whole holds those more often. The source made the active and inactive calls. Rule as the data show it: active = growth inhibition above about 70%; inactive = the rest.
measured_quantity: growth inhibition

molecule	result
O=C(O)c1cc(=O)[nH]c(=O)[nH]1.[Cu+2]	-15.8% (inactive)
CN(C)c1nc(=S)c2cn[nH]c2[nH]1	0.1% (inactive)
O=C(O)Cc1nc(Cl)ccc1Cl	16.1% (inactive)
CC(C)=CCOc1ccc(-c2coc3cc4c(c(O)c3c2=O)C=CC(C)(C)O4)cc1	15.7% (inactive)
O=C1c2ccccc2N(Cc2cccc(F)c2)C2=NCCCC12 (stereo unspecified)	-4.2% (inactive)
CCOC(=O)C1Sc2ccccc2N=C1C (stereo unspecified)	0% (inactive)
O=P(OCCCl)(OCCCl)C(c1ccccc1)(c1ccccc1)c1ccccc1	63.4% (inactive)
CCN(CC)CCCNc1c2ccccc2nc2ccccc12	13.7% (inactive)
O=S=C1SC2CCCCC2S1 (stereo unspecified)	2.75% (inactive)
O=C1c2cn[nH]c2N=C(Nc2ccccc2)C1N=Cc1ccc([N+](=O)[O-])cc1 (stereo unspecified)	-32.6% (inactive)

Give me growth inhibition for each of these molecules, listed below.
1. CC(=O)N[C@H](CO)[C@H](O)c1ccc([N+](=O)[O-])cc1
2. CC(C)NCc1ccccc1Sc1ccccc1CNC(C)C
3. O=C(O)c1ccccc1Cc1c[nH]c2ccccc12
4. CC(=O)C(C)O (stereo unspecified)
5. Cc1cc(N=Nc2cc(Br)cc(Br)c2)cc(C)c1N
6. COC(=O)c1ncn(Cc2ccccc2)c1O (tested in a mixture with another compound)
7. COc1cc(C=Nc2ccc(C(C)C)cc2)cc(OC)c1OC
8. CC(=Nc1cccc2ccccc12)c1c(O)cc(C)oc1=O

1: -12.2% (inactive); 2: 22.1% (inactive); 3: -37.3% (inactive); 4: -27.8% (inactive); 5: 10.8% (inactive); 6: 8.7% (inactive); 7: 9.25% (inactive); 8: 20.4% (inactive)

Dear colleague, could you please provide growth inhibition for the molecules listed below?
1. Cc1c(NC=O)c(=O)n(-c2ccccc2)n1C
2. CC(C)(C)c1ccc(C(=O)NCSCC(NC(=O)CCC(N)C(=O)O)C(=O)NCC(=O)O)cc1 (stereo unspecified)
3. C=CCc1cccc(C)c1O
4. COc1cc(NC(C)CCCNC(C)C)c2nccc(C)c2c1 (stereo unspecified)
5. CC1(C)Oc2ccc(NC(=O)CCC(N)C(=O)O)cc2O1 (stereo unspecified)
6. Clc1ccc2c(N3CCC(CCC4CCN(c5ncnc6cc(Cl)ccc56)CC4)CC3)ncnc2c1

1: -10.8% (inactive); 2: -10.4% (inactive); 3: 18.9% (inactive); 4: 17.4% (inactive); 5: -28.2% (inactive); 6: -17.9% (inactive)

Hi, could you look up growth inhibition for each item in my list?
1. O=C(O)C1COCOC1c1ccccc1 (stereo unspecified)
2. CCC(CCC(C)C1CCC2C3CC=C4CC(OC(=O)Nc5ccccc5)CCC4(C)C3CCC12C)C(C)C (stereo unspecified)
3. CC1=COC(=O)[C@@H]2[C@@H](C)CC[C@@H]12
4. COc1c(NC(=O)CC(C)=O)cccc1NC(=O)CC(C)=O
5. C1=Nc2ccccc2/C1=C/c1c[nH]c2ccccc12
6. O=C(Nc1cccc2ccccc12)OCC1CC1
7. COc1ccc(C2C3=C(COC3=O)Oc3cc4c(cc32)OCO4)cc1OC (stereo unspecified)
8. O=[N+]([O-])c1cc(Cl)ccc1Nc1ccccc1

-1.6% (inactive)
-23.4% (inactive)
1.1% (inactive)
-1.2% (inactive)
11.2% (inactive)
-4% (inactive)
-21.5% (inactive)
51.3% (inactive)

---

# assay_notes: NCI Yeast Anticancer Drug Screen. Data for the sgs1 mgt1 strain (AID 161);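 note: 0% = growth of cultures given vehicle only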
# measurement_parameters: S. cerevisiae sgs1 mgt1 strain, at 50.0 µM, active compounds read high
About 79,000 compounds went through this panel and 15% of them were active in at least one assay; those are over-represented in the sample as a whole.
measured_quantity: growth inhibition (%)
Numbers only, in %.

compound	growth inhibition [%]
CCOC(=O)c1nc(N(C)C)oc(=O)c1C	28.1

For every item below, please supply its growth inhibition.
1. O=c1oc2ccccc2c(O)c1[N+](=O)[O-]
2. O=C(O)C1CCC(C(=O)O)CC1.[NH-]C1CCCCC1[NH-].[Pt+2] (configuration not stated)
3. Cc1ccnc2c1NC(=O)c1cccnc1N2C1CC1

-6.4
-1.15
-8.6

Where do the numbers come from? From PubChem BioAssay (NCI).
